# TEST_DESCRIPTION: Compound stability in whole mouse blood
# Type: in vitro ADME
# CONDITION_PARAMETERS: fresh mouse blood, initial concentration 1.44 μM, 37° C., test (parent) compound at 4 h
Here, each record is paired with measured Compound conc. (μM) at 4 h data.
Provide only the numeric value, understood in µM.

[2H]C([2H])(CCS(=O)(=O)O)NC(=O)[C@@H](N)Cc1ccccc1 : 0.03
[2H]C([2H])(CCS(=O)(=O)O)NC(=O)[C@H](C)N : 0.18

Could you now consider this next compound?
Could you tell me which Compound conc. (μM) at 4 h is on file for `[2H]C([2H])(CCS(=O)(=O)O)NC(=O)[C@@H](N)C(C)C` ?
0.74
